Kd values by entry
Biological target: T1, human SIRP-α v1 (human, UniProt P78324 31-149)
T1 construct: also called Human v1; Human V1
T1 sequence (P78324 31-149 limits assumed): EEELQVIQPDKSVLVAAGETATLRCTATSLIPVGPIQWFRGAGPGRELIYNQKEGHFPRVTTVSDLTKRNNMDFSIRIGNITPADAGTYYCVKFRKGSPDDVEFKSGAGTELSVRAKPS
Experiment: SPR
Lab book: enter the figure in pM, no units written.

antibody 123 (antibody, V domains shown, also called S123) VH: VQLVESGGGLVQPGGSLRLSCTASGFTFRNYGMSWVRQAPGEGLEWVSASSGSGSTYYTDSVKGRFTISRDNSKNTLYLQMNSLRAEDTAIYYCAKVTWNNFFDYWGLGTLVTVSS VL: EIVLTQSPGTLSVSPGERVTLTCRASQGIAGKIAWYQQKPGQAPRLLIYDASSRATGIPGRFSGSGSGTEFTLTITSLQSEDFAVYYCQQHYDWSPLTFGGGTKVEIK = 605

Consider the binder antibody 121 (antibody, V domains shown, also called S121) VH: VQLVESGGGVVQPGGSLRLSCAASGFSFSNFAMTWVRQAPGEGLEWVSTIGSGDTYYADSVKGRFTISRDNSKNTLYLQMNSLRAEDTAVYYCAKDSTVSWSGDFFDYWGLGTLVTVSS VL: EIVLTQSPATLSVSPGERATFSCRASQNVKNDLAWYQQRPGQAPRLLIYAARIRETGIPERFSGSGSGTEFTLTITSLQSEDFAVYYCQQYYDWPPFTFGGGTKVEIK and give its recorded Kd. 157

// data source = patent US20210363269A1
